biological target: human GLP-1 receptor (human, UniProt P43220 24-463); test: cell-based or functional assay
Bridge positions count the residues as written; N and C are the ends. Square brackets hold non-standard residues; d marks the D form. Ends that are not written are not given here. * marks the point of attachment. Acetyl(2-(4-imidazolyl)) = O=C(Cc1c[nH]cn1)*; Aib = CC(C)(N)C(=O)O
In this scheme, each record receives a class according to its In vitro activity (%) compared with native peptide, vs GLP-1; the ranges are lower bin (below 20%), middle bin (20% to below 40%), upper bin (40% or more)

# binder, qualitativeLabel
data = [
    ("{Acetyl(2-(4-imidazolyl))}-[Aib]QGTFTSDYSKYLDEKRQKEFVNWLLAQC (bridge 15-19; numbers in words are those of the source; also: ring between positions 16 and 20, type not given here) [triple agonist of SEQ ID NO: 86]", "middle bin"),
    ("H[Aib]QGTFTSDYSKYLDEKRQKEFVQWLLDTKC (bridge 16-20; also: ring between positions 16 and 20, type not given here) [triple agonist of SEQ ID NO: 78]", "upper bin"),
    ("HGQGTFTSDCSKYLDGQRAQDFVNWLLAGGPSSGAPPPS [triple agonist of SEQ ID NO: 48]", "lower bin"),
    ("[Acetyl(2-(4-imidazolyl))][Aib]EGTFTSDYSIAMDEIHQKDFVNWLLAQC (bridge 16-20; not fully specified) [triple agonist of SEQ ID NO: 83]", "upper bin"),
    ("H[Aib]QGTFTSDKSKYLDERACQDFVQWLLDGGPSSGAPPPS (not fully specified) [triple agonist of SEQ ID NO: 40]", "upper bin"),
    ("{Acetyl(2-(4-imidazolyl))}-[Aib]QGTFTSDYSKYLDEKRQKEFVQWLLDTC (bridge 15-19; numbers in words are those of the source; also: ring between positions 16 and 20, type not given here) [triple agonist of SEQ ID NO: 82]", "lower bin"),
    ("H[Aib]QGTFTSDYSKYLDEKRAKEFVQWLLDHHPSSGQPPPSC (bridge 16-20) [triple agonist of SEQ ID NO: 50]", "upper bin"),
    ("H[Aib]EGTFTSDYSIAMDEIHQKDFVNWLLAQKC (bridge 16-20; not fully specified) [triple agonist of SEQ ID NO: 79]", "upper bin"),
    ("H[Aib]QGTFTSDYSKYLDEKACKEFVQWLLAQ (bridge 16-20) [triple agonist of SEQ ID NO: 31]", "upper bin"),
    ("H[Aib]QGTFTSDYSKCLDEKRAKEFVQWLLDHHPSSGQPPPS (bridge 16-20) [triple agonist of SEQ ID NO: 65]", "upper bin"),
    ("Y[Aib]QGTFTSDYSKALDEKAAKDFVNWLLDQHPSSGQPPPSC (bridge 16-20) [triple agonist of SEQ ID NO: 102]", "middle bin"),
    ("{Acetyl(2-(4-imidazolyl))}-[Aib]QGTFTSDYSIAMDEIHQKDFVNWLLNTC (bridge 15-19; numbers in words are those of the source; also: ring between positions 16 and 20, type not given here) [triple agonist of SEQ ID NO: 87]", "lower bin"),
    ("H[Aib]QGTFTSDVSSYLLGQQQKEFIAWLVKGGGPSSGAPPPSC [triple agonist of SEQ ID NO: 5]", "upper bin"),
    ("[Acetyl(2-(4-imidazolyl))][Aib]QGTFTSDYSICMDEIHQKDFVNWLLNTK (bridge 16-20) [triple agonist of SEQ ID NO: 49]", "middle bin"),
    ("H[Aib]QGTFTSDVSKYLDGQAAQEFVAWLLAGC [triple agonist of SEQ ID NO: 9]", "middle bin"),
    ("Y[Aib]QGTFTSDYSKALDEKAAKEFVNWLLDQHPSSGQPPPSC (bridge 16-20) [triple agonist of SEQ ID NO: 101]", "middle bin"),
    ("H[Aib]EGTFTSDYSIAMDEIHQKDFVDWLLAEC (bridge 16-20) [triple agonist of SEQ ID NO: 54]", "middle bin"),
    ("Y[Aib]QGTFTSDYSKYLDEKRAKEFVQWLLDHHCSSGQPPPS (bridge 16-20) [triple agonist of SEQ ID NO: 43]", "lower bin"),
]

Source of measurements: patent US20230355720A1
